ASSAY_NOTES: Cytotoxicity study (CellTiter 96 AQueous One) in LLC/MK2 cells
Assay type: cell-based
ASSAY_CONDITIONS: rhesus monkey; LLC/MK2 cells; 48 h incubation; read-out: CC50 (cytotoxic concentration)
Protocol: The cytotoxicity of active compounds was tested on LLC-MK2, Vero, THP-1, HEK-293, HepG2 and C6/36 cell lines. Each cell line was seeded at 1 × 10^4 cells per well in 96-well plates and incubated overnight. […] Cell viability was analyzed using CellTiter 96® AQueous One Solution Cell Proliferation Assay kit (Promega, Wisconsin-Madison, USA) according to manufacturer’s protocol. The plate was read at the A 450 in a VICTORTM × 3 microplate reader (PerkinElmer, Massachusetts, USA). […]
OBSERVATION_TYPE: CC50 at 48 h (µM)
Number in µM, nothing else.

Query block: State the recorded CC50 at 48 h for this entry: O=c1cc(-c2ccccc2)oc2c(Br)c(O)c(Br)c(O)c12 [FV13, 6,8-dibromo-5,7-dihydroxyflavone]
Result block: 44.3

Query block: State the recorded CC50 at 48 h for this entry: O=c1cc(-c2ccccc2)oc2c(I)c(O)c(I)c(O)c12 [FV14, 6,8-diiodo-5,7-dihydroxyflavone]
Result block: 42.5

Data provenance: paper PMC5651866
